Values compiled from patent US20050282743A1.

# tested-target: T1, GST-KIAA1719 PDZ domain 5 (Homo sapiens (Human)), Q9C0E4
# T1 chain: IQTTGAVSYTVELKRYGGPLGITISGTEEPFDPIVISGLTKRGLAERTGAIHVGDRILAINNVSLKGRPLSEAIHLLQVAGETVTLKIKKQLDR
# assay-notes: G assay titration, PDZ 5 ug/ml
readout: Kd (nM)
Give just the numeric value; nM need not be written.

Ask: Please look up its Kd: HHLVAQRDIRQFQLQHWLAI (modifications not checked) [noradrenaline transporter]
Reply: 1000
